Sequence of the target: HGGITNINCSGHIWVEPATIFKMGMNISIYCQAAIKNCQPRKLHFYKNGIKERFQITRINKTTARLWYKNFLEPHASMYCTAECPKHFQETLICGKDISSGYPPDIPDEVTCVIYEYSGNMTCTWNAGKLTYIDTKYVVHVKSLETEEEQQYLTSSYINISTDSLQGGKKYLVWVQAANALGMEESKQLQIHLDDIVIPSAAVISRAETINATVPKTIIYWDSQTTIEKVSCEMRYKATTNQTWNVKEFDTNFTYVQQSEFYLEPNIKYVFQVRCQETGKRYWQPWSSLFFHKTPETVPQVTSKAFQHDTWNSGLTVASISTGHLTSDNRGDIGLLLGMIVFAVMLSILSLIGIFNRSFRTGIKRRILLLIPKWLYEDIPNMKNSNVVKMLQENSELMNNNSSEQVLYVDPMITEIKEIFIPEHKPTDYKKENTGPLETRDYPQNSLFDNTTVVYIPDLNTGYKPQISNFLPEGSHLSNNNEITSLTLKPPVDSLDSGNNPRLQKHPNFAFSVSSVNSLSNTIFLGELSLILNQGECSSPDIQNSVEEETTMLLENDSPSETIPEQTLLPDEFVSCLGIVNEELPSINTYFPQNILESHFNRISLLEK
Where a SMILES comes first, the peptide text is derived from it. Bridges are numbered along the chain shown (N, C = ends). [ ]: non-standard residue; d: D form. 2Nal = N[C@@H](Cc1ccc2ccccc2c1)C(=O)O; AEF = NCCOc1ccc(C[C@H](N)C(=O)O)cc1; 3Pal = N[C@@H](Cc1cccnc1)C(=O)O; αMeL = CC(C)C[C@](C)(N)C(=O)O; Dab = NCC[C@H](N)C(=O)O; βAla = NCCC(=O)O
measured_quantity: IC50 (nM)
Numeric only. Scale: nM

Lookup: Please give the measured IC50 for this compound: COc1ccc(C[C@@H]2NC(=O)[C@@H]3CCC(=O)N[C@@H](CCCCNC(=O)CC[C@@H](C(=O)N[C@@H](CCCCNC(=O)c4cccnc4)C(N)=O)NC(=O)[C@](C)(CC(C)C)NC(=O)[C@H](Cc4ccc5ccccc5c4)NC2=O)C(=O)N[C@@H]([C@@H](C)O)C(=O)N[C@@H](C(C)C)C(=O)N[C@@H](Cc2c[nH]c4ccccc24)C(=O)N[C@@H](CCC(N)=O)C(=O)N3)cc1 [Compound 50]
Found: 320

Lookup: Now the compound CNC(=O)[C@H](Cc1cccnc1)NC(=O)[C@H](CCN)NC(=O)[C@@H]1CCC(=O)NCCCC[C@H]2C(=O)N[C@@H]([C@@H](C)O)C(=O)N[C@@H](Cc3c[nH]c4ccccc34)C(=O)N[C@@H](CCC(N)=O)C(=O)N[C@@H](Cc3cn2nn3)C(=O)N[C@@H](Cc2ccc(OCCN)cc2)C(=O)N[C@@H](Cc2ccc3ccccc3c2)C(=O)N[C@@](C)(CC(C)C)C(=O)N1 [Compound 41]
Found: 1.5

Lookup: Now the compound CC(C)C[C@]1(C)NC(=O)[C@H](Cc2ccc3ccccc3c2)NC(=O)[C@H](Cc2ccc(OCCN)cc2)NC(=O)[C@@H]2CC(=O)N[C@H](CCCCNC(=O)CC[C@@H](C(=O)N[C@@H](CCN)C(=O)N[C@@H](Cc3cccnc3)C(N)=O)NC1=O)C(=O)N[C@@H]([C@@H](C)O)C(=O)N[C@@H](C(C)C)C(=O)N[C@@H](Cc1c[nH]c3ccccc13)C(=O)N[C@@H](CCC(N)=O)C(=O)N2 [Compound 3] ([dK]TVWQD[AEF][2Nal][αMeL]E[Dab][3Pal]-NH2; lactam 1-10, N-6)
Found: 0.091

Lookup: Now the compound CC[C@H](C)[C@@H]1NC(=O)[C@@H]2CCCCNC(=O)CC[C@@H](C(=O)N[C@@H](CCN)C(=O)N[C@@H](Cc3cccnc3)C(=O)NC)NC(=O)[C@](C)(CC(C)C)NC(=O)[C@H](Cc3ccc4ccccc4c3)NC(=O)[C@H](Cc3ccc(OCc4ccccc4)cc3)NC(=O)[C@H](CCC(=O)N2)NC(=O)[C@H](CCC(N)=O)NC(=O)[C@H](Cc2c[nH]c3ccccc23)NC(=O)[C@H](C(C)C)NC1=O [Compound 34]
Found: 0.62

Lookup: Now the compound CNC(=O)[C@H](Cc1cccnc1)NC(=O)[C@H](CCN)NC(=O)[C@@H]1CCC(=O)NCCCC[C@@H]2NC(=O)CC[C@H](NC(=O)[C@H](CCC(N)=O)NC(=O)[C@H](Cc3c[nH]c4ccccc34)NC(=O)CCNC2=O)C(=O)N[C@@H](Cc2c[nH]c3ccccc23)C(=O)N[C@@H](Cc2ccc3ccccc3c2)C(=O)N[C@@](C)(CC(C)C)C(=O)N1 [Compound 110] (K[βAla]WQEW[2Nal][αMeL]E[Dab][3Pal]-NHMe; lactam 1-9, N-5)
Found: 0.079

Ref: patent EP4471048A1
